Provide the recorded pKi for the entries that follow.
biological target: MMP-9 (HNG; human neutrophil gelatinase) (Homo sapiens); assay: Enzyme kinetic assay, inhibition of MMP-9; type: biochemical; conditions: read-out: Ki (value in parentheses), HNG MMP-9
Sequence (P14780 94-707): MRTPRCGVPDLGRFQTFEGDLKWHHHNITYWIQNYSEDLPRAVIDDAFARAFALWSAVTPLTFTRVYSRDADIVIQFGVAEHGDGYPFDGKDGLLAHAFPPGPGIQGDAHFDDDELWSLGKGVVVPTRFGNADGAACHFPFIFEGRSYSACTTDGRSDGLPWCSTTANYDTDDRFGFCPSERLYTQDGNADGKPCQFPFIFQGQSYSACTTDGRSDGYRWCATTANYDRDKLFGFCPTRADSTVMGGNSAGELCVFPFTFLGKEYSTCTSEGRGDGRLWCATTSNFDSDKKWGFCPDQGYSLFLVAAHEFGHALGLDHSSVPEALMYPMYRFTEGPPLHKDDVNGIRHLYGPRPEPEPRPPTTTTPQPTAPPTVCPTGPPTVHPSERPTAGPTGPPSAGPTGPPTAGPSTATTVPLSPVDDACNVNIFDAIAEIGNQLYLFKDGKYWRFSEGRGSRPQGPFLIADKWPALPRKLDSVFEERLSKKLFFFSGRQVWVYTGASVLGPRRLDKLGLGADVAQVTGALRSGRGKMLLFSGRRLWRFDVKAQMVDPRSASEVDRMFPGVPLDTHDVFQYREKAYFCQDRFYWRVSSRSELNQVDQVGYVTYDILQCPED
Counter-ions that a name gives are not always drawn.
Numbers only, as −log10 of the molar value.

{"compound": "NC(=O)N1C[C@H](NS(=O)(=O)c2ccc(Oc3ccccc3)cc2)[C@@H](S)C1 [Example 12]", "target.system": "MMP-9 (HNG; human neutrophil gelatinase) (Homo sapiens)", "pKi": 7.89}

Give pKi for each of the items listed below.
1. NCCCCCC(=O)N1C[C@H](NS(=O)(=O)c2ccc(Oc3ccccc3)cc2)[C@@H](S)C1 (racemic) [Example 7, Hydrochloride]
2. O=C(OCc1ccccc1)N1C[C@@H](S)[C@@H](NS(=O)(=O)c2ccc(Oc3ccccc3)cc2)C1 [Example 14]
3. CC(=O)NCCCCCC(=O)N1C[C@H](NS(=O)(=O)c2ccc(-c3ccccc3)cc2)[C@@H](S)C1 (racemic) [Example 9]
4. O=S(=O)(N[C@H]1CNC[C@@H]1S)c1ccc(Oc2ccccc2)cc1 (racemic) [Example 3, Hydrochloride]
5. O=S(=O)(N[C@@H]1CNC[C@H]1S)c1ccc(Oc2ccccc2)cc1 [Example 11, Hydrochloride]
6. O=C(OCc1ccccc1)N1C[C@H](NS(=O)(=O)c2ccc(Oc3ccccc3)cc2)[C@@H](S)C1 (racemic) [Example 5]

## Result
1. 8.64
2. 5.66
3. 6.40
4. 6.64
5. 6.64
6. 7.89

* * *

biological target: MMP-26 (EDM; human endometase) (Homo sapiens); experiment: Enzyme kinetic assay, inhibition of MMP-26; details: read-out: Ki (value in parentheses), EDM MMP-26
Sequence (Q9NRE1 90-261): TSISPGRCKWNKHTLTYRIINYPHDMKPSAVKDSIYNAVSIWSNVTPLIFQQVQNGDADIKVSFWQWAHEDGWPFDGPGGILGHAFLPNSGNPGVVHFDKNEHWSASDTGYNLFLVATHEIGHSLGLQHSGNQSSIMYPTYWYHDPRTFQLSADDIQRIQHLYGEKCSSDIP
Structures can show the parent of a compound that is named as a salt.
Provide the recorded pKi for the entries that follow.
Give bare numbers, as −log10 of the molar value.

{"compound": "CN([C@H]1CN(C(N)=O)C[C@@H]1S)S(=O)(=O)c1ccc(Oc2ccccc2)cc1 (racemic)", "target.system": "MMP-26 (EDM; human endometase) (Homo sapiens)", "observable": "pKi", "number": 7.72}

Give pKi for each of the items listed below.
1. CC(=O)NCCCCCC(=O)N1C[C@H](NS(=O)(=O)c2ccc(Oc3ccccc3)cc2)[C@@H](S)C1 (racemic)
2. O=C(OCc1ccccc1)N1C[C@H](NS(=O)(=O)c2ccc(Oc3ccccc3)cc2)[C@@H](S)C1 (racemic)
3. NC(=O)N1C[C@H](NS(=O)(=O)c2ccc(Oc3ccccc3)cc2)[C@@H](S)C1 (racemic)
4. O=C(OCc1ccccc1)N1C[C@H](NS(=O)(=O)c2ccc(-c3ccccc3)cc2)[C@@H](S)C1 (racemic)
5. O=C(NCCN1C(=O)c2ccccc2C1=O)N1C[C@H](NS(=O)(=O)c2ccc(Oc3ccccc3)cc2)[C@@H](S)C1 (racemic)
6. CC(=O)NCCCCCC(=O)N1C[C@H](NS(=O)(=O)c2ccc(-c3ccccc3)cc2)[C@@H](S)C1 (racemic)

## Result
[8.52, 7.14, 7.49, 6.19, 7.39, 6.57]

Give pKi for each of the items listed below.
1. NCCCCCC(=O)N1C[C@H](NS(=O)(=O)c2ccc(Oc3ccccc3)cc2)[C@@H](S)C1 (racemic) [Example 7, Hydrochloride]
2. O=S(=O)(N[C@H]1CNC[C@@H]1S)c1ccc(Oc2ccccc2)cc1 (racemic) [Example 3, Hydrochloride]

## Result
8.40
7.55

* * *

Provide the recorded IC50 for the entries that follow.
Target: MMP-7 (MLN; human matrilysin) (Homo sapiens, UniProt P09237)
Sequence (P09237 95-267): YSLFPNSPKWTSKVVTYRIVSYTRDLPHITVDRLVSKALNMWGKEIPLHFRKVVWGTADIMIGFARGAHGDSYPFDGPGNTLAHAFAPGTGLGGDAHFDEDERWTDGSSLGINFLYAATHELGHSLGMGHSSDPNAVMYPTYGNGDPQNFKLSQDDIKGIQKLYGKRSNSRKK
Experiment: Enzyme kinetic assay, inhibition of MMP-7
Settings: 25° C., pH 7.5, substrate 1 μM; read-out: IC50 (value without parentheses), MLN MMP-7
Structures can show the parent of a compound that is named as a salt.

Give IC50 for each of the items listed below.
1. O=C(NCCN1C(=O)c2ccccc2C1=O)N1C[C@H](NS(=O)(=O)c2ccc(Oc3ccccc3)cc2)[C@@H](S)C1 (racemic)
2. O=C(OCc1ccccc1)N1C[C@H](NS(=O)(=O)c2ccc(-c3ccccc3)cc2)[C@@H](S)C1 (racemic)
3. NC(=O)N1C[C@H](NS(=O)(=O)c2ccc(Oc3ccccc3)cc2)[C@@H](S)C1 (racemic)
4. O=S(=O)(N[C@H]1CNC[C@@H]1S)c1ccc(Oc2ccccc2)cc1 (racemic) [Example 3, Hydrochloride]
5. O=C(OCc1ccccc1)N1C[C@H](NS(=O)(=O)c2ccc(Oc3ccccc3)cc2)[C@@H](S)C1 (racemic)
6. CN([C@H]1CN(C(N)=O)C[C@@H]1S)S(=O)(=O)c1ccc(Oc2ccccc2)cc1 (racemic)

## Result
1. > 12.5 µM
2. > 12.5 µM
3. > 25 µM
4. > 25 µM
5. > 50 µM
6. > 25 µM

* * *

Provide the recorded Ki for the entries that follow.
target: MMP-3 (HFS; human fibroblast stromelysin-1) (Homo sapiens); experiment: Enzyme kinetic assay, inhibition of MMP-3; conditions: read-out: Ki (value in parentheses), HFS MMP-3
Sequence (P08254 100-477): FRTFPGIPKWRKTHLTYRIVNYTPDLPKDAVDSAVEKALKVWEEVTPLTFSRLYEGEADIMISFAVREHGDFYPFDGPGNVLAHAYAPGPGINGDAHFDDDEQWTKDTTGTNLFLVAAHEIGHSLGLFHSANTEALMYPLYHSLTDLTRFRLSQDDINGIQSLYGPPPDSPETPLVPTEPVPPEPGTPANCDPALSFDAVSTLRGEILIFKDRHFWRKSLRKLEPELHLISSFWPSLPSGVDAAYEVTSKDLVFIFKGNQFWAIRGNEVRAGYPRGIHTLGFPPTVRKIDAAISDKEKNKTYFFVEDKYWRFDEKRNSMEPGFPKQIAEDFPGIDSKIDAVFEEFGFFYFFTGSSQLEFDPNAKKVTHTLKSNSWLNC
Counter-ions that a name gives are not always drawn.
Answers are plain numbers, in nM.

Known results for compounds:
{"compound": "O=S(=O)(N[C@H]1CNC[C@@H]1S)c1ccc(Oc2ccccc2)cc1 [Example 10, Hydrochloride]", "number": 5900}
{"compound": "CN([C@H]1CN(C(N)=O)C[C@@H]1S)S(=O)(=O)c1ccc(Oc2ccccc2)cc1 (racemic)", "number": 350}
{"compound": "O=C(OCc1ccccc1)N1C[C@@H](S)[C@@H](NS(=O)(=O)c2ccc(Oc3ccccc3)cc2)C1", "number": 3400}

Give Ki for each of the items listed below.
1. NCCCCCC(=O)N1C[C@H](NS(=O)(=O)c2ccc(Oc3ccccc3)cc2)[C@@H](S)C1 (racemic) [Example 7, Hydrochloride]
2. O=C(OCc1ccccc1)N1C[C@H](NS(=O)(=O)c2ccc(Oc3ccccc3)cc2)[C@@H](S)C1 (racemic)
3. O=C(OCc1ccccc1)N1C[C@H](S)[C@H](NS(=O)(=O)c2ccc(Oc3ccccc3)cc2)C1
4. NC(=O)N1C[C@H](NS(=O)(=O)c2ccc(Oc3ccccc3)cc2)[C@@H](S)C1 [Example 12]
5. CC(=O)NCCCCCC(=O)N1C[C@H](NS(=O)(=O)c2ccc(Oc3ccccc3)cc2)[C@@H](S)C1 (racemic)
6. NC(=O)N1C[C@H](NS(=O)(=O)c2ccc(Oc3ccccc3)cc2)[C@@H](S)C1 (racemic) [Example 1]
7. O=C(NCCN1C(=O)c2ccccc2C1=O)N1C[C@H](NS(=O)(=O)c2ccc(Oc3ccccc3)cc2)[C@@H](S)C1 (racemic)
8. O=S(=O)(N[C@@H]1CNC[C@H]1S)c1ccc(Oc2ccccc2)cc1 [Example 11, Hydrochloride]

## Result
[2000, 4500, 5400, 1700, 810, 460, 37, 1600]

## Task Please report the recorded Ki for O=S(=O)(N[C@H]1CNC[C@@H]1S)c1ccc(Oc2ccccc2)cc1 (racemic) [Example 3, Hydrochloride] .
## Result 2500

* * *

Provide the recorded Ki for the entries that follow.
biological target: MMP-7 (MLN; human matrilysin) (Homo sapiens, UniProt P09237); assay: Enzyme kinetic assay, inhibition of MMP-7; conditions: read-out: Ki (value in parentheses), MLN MMP-7
Where a name gives a salt, the structure may show the parent alone.
Answers are plain numbers, in µM.

{"compound": "NCCCCCC(=O)N1C[C@H](NS(=O)(=O)c2ccc(Oc3ccccc3)cc2)[C@@H](S)C1 (racemic) [Example 7, Hydrochloride]", "target.system": "MMP-7 (MLN; human matrilysin) (Homo sapiens, UniProt P09237)", "result.units": "µM", "Ki": 4}

Give Ki for each of the items listed below.
1. CC(=O)NCCCCCC(=O)N1C[C@H](NS(=O)(=O)c2ccc(Oc3ccccc3)cc2)[C@@H](S)C1 (racemic) [Example 8]
2. CC(=O)NCCCCCC(=O)N1C[C@H](NS(=O)(=O)c2ccc(-c3ccccc3)cc2)[C@@H](S)C1 (racemic) [Example 9]

## Result
[3, 2]

* * *

Provide the recorded Ki for the entries that follow.
biological target: MMP-9 (HNG; human neutrophil gelatinase) (Homo sapiens); experiment: Enzyme kinetic assay, inhibition of MMP-9; conditions: read-out: Ki (value in parentheses), HNG MMP-9
One number for each entry, in nM.

Give Ki for each of the items listed below.
1. CC(=O)NCCCCCC(=O)N1C[C@H](NS(=O)(=O)c2ccc(Oc3ccccc3)cc2)[C@@H](S)C1 (racemic)
2. NC(=O)N1C[C@H](NS(=O)(=O)c2ccc(Oc3ccccc3)cc2)[C@@H](S)C1 (racemic) [Example 1]

## Result
1: 1.5; 2: 15
